Target: DN-III-NS antigen (produced by Fapon Biotech InC.) (dengue virus)
Experiment: capture ELISA (anti-mouse IgG / antibody / antigen / HRP-mAb), antibody sample Original
property: OD450 (ref. 630 nm) (OD)
Field: numeric (OD). Do not append units.

Query: GET /values?readout=OD450 (ref. 630 nm)&item= Mutation 2 (antibody, V domains shown) VH: EVQLQQSGTELVRPGALVKLSCKASGFNIKDYYVHWVKQRPRQGLEWIGWIDPNNGKTLYDPKYQDKASITSDTSTNTAYLQLRSLTSEDTAVYYCVTAYVRFVYWGQGTLVTVSA VL: QIVLTQSPAIMSAFPGERVTMTCSASSSVRYMYWHQQKPGSSPRLLIYDTSNVASGVPVRFSGSGSGTSYSLTISRDEAMDAATYYCQQYSSTPRTFGGGTKLEIKR
Response: 2.27
